measuredOn: UniProt P00533
Sequence (P00533 whole entry, the tested form may be a part): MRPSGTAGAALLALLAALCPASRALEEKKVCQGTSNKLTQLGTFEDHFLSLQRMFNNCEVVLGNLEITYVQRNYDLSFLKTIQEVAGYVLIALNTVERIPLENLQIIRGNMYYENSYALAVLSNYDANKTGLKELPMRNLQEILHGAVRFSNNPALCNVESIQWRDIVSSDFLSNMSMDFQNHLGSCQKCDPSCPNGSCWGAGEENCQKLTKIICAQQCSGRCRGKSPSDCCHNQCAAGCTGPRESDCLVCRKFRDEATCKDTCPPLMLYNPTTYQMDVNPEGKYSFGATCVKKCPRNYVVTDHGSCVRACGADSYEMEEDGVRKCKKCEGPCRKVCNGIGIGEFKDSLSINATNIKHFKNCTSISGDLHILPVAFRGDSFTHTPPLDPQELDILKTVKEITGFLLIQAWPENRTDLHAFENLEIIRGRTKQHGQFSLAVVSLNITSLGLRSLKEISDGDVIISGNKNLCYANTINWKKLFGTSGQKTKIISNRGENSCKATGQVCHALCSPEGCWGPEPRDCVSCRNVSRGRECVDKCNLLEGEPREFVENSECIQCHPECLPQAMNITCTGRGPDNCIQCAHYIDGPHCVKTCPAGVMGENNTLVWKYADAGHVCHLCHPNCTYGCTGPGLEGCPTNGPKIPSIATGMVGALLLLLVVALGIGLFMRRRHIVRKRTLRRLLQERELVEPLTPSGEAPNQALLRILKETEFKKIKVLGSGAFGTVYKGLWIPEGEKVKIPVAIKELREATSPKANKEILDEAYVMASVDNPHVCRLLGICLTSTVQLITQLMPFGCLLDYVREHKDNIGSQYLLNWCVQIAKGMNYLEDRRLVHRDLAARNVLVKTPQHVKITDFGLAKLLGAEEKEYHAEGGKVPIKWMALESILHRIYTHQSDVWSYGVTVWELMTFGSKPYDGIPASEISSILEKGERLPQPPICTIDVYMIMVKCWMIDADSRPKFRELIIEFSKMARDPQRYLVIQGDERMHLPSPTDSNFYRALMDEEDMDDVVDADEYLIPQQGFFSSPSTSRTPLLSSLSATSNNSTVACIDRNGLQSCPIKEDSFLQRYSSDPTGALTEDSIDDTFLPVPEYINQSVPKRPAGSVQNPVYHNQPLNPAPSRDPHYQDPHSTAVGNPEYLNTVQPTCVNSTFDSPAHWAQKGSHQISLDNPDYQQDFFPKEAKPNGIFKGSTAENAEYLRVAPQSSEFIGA
experimentDescription: Inhibition of erbB1 fusion protein expressed in baculovirus by ELISA
Item-by-item account of pIC50
// pIC50 is dimensionless: -log10 of concentration (M)

Record request: pIC50 value, item O=C(C#CCCN1CCOCC1)Nc1cc2c(Nc3ccc(F)c(Cl)c3)ncnc2cn1 8.89

---

measuredOn: Receptor tyrosine-protein kinase erbB-2 (Homo sapiens, UniProt P04626)
Sequence (P04626 whole entry): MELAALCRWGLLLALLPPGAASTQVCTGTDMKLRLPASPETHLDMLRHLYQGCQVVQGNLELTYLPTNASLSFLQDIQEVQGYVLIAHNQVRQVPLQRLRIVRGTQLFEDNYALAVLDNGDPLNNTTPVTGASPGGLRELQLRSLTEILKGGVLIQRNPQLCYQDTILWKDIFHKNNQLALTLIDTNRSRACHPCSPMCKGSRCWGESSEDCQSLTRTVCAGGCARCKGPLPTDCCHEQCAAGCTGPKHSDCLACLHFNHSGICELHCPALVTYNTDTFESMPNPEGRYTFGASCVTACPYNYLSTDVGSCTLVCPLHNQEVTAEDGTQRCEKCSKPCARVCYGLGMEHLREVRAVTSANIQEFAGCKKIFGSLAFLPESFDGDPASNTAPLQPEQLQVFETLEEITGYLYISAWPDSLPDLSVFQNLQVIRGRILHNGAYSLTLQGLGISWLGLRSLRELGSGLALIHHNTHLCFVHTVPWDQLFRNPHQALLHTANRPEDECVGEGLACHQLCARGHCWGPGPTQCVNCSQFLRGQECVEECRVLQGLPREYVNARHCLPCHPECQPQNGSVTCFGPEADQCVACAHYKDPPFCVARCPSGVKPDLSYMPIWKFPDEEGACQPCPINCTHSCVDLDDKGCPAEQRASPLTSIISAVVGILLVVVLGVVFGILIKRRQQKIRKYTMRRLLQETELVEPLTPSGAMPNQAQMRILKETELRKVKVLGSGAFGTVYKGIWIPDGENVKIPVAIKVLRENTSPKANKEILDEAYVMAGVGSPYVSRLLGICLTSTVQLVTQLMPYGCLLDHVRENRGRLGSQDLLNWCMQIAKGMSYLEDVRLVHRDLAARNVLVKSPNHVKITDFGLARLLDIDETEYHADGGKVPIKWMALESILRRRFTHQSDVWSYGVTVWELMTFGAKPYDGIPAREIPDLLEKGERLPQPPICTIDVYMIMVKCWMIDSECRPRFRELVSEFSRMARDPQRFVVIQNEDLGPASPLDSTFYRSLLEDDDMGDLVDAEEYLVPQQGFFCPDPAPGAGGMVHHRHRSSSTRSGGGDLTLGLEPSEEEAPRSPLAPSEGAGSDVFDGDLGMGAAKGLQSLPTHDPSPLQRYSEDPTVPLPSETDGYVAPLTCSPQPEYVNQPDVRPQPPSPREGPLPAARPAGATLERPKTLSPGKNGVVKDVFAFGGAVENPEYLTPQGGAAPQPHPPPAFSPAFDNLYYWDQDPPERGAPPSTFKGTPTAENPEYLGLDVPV
The reader will find reported pIC50 values listed item by item below.
Note: pIC50 values are expressed as the negative base-10 logarithm of concentration in M.

Here's what some known entries look like.
- O=C(C#CCN1CCOCC1)Nc1ccc2ncnc(Nc3ccc(F)c(Cl)c3)c2c1: 6.76
- CCN(CC)CCC#CC(=O)Nc1ccc2ncnc(Nc3ccc(F)c(Cl)c3)c2c1: 7.64
- O=C(C#CCCN1CCOCC1)Nc1cc2c(Nc3ccc(F)c(Cl)c3)ncnc2cn1: 8.30

What value of pIC50 has been recorded for this entry: O=C(C#CCO)Nc1ccc2ncnc(Nc3ccc(F)c(Cl)c3)c2c1 7.37

Now give it for CCCCN(CC#CC(=O)Nc1ccc2ncnc(Nc3ccc(F)c(Cl)c3)c2c1)CCCC too. 7.49

Next compound: CCCCC#CC(=O)Nc1cc2c(Nc3ccc(F)c(Cl)c3)ncnc2cn1 7.70

Then this compound: CC(C)N(CC#CC(=O)Nc1ccc2ncnc(Nc3ccc(F)c(Cl)c3)c2c1)C(C)C 7.19

Next: CCCCN(CC#CC(=O)Nc1cc2c(Nc3ccc(F)c(Cl)c3)ncnc2cn1)CCCC 6.49

Can you handle O=C(C#CCCN1CCOCC1)Nc1cc2c(Nc3ccc(F)c(Br)c3)ncnc2cn1 next? 9.30

Param item: O=C(C#CCCN1CCOCC1)Nc1ccc2ncnc(Nc3ccc(F)c(Cl)c3)c2c1 8.12
